Let's look at some binders and their measured pKd.
Biological target: T1, LNX2_2, Q8N448
T1 sequence (Q8N448 334-432, limits assumed, looked up): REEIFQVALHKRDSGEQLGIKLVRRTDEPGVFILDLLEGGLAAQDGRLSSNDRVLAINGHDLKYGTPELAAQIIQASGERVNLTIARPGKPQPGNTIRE
Experiment: holdup assay
Set-up: key: below the threshold = too weak to quantify, mostly under pKd 3.1 to 4
Conditions: plain residues with an end cap or a label only (N-terminal biotin on a linker: ado-ado)
Property: pKd

{"Binder": "VCMGDHWFDV [PRKN, O60260]", "Reported value": 4.57}
{"Binder": "ADEMICITTL [CACNA1D, Q01668]", "Reported value": 3.93}
{"Binder": "YAEKRMLTEV [KCNA6, P17658]", "Reported value": 4.04}
